Data origin: PubChem BioAssay (NCI)

Tested on: K-562 leukemia
ASSAY COMMENT: NCI tumour cell line growth inhibition, 48 h; in the data active means GI50 below about 0.43 µM; inactive means the rest
Labels: Yes = active, No = inactive

> print(dat)
                                   compound  category
1  CN(C)CCOc1ccccc1NC1=C(Cl)C(=O)C(Nc2ccccc2OCCN(C)C)=C(Cl)C1=O        No
2  COc1ccc2c(c1)C(c1cc(OC)c3c(c1)OCO3)C1=C(COC1=O)N2 (centres undefined)       Yes
3  CCNCCNc1cc(-c2ccc(C(F)(F)F)cc2)c(C#N)c2nc3cc(Cl)c(Cl)cc3n12       Yes
4  CNC(=O)c1cccc(C#Cc2cncnc2Nc2ccc(OCc3cccc(F)c3)c(Cl)c2)c1        No
5  CN(C)Cc1c(C(=O)NCCOc2ccc(C(=O)NO)cc2)oc2ccccc12       Yes
6  COC(=O)c1oc2c(C(=O)/C=C/c3ccc(OC)cc3)c(OCCN3CCOCC3)ccc2c1C        No
7  Cc1sc2c(c1C)C(c1ccc(Cl)cc1)=N[C@@H](CC(=O)NCCCN1CCN(C)CC1)c1nnc(C)n1-2       Yes
8  Cc1ccccc1C(C(=O)NC1CCCCC1)N(C(=O)CNc1ncccc1F)c1cccc(F)c1 (centres undefined)        No
9        Nc1nn(C(=O)Nc2c(F)cccc2F)c2ccccc12        No
